Reference for the values: patent US9618524B2

Please go through the items and note down their Semi-quantitative analysis of proteins binding to different plaque particles: Chl small.
tested on: Low density cholesterol (Chl small) plaque particles; experiment: Mass spectroscopy proteomics, semi-quantitative binding affinity of serum proteins (plaqueproteome, Table 2); design: species or system human; settings: higher number = stronger affinity
Numbers only.

# molecule, endpoint.result
rows = [
    ("Serpin B3 (protein) MNSLSEANTKFMFDLFQQFRKSKENNIFYSPISITSALGMVLLGAKDNTAQQIKKVLHFDQVTENTTGKAATYHVDRSGNVHHQFQKLLTEFNKSTDAYELKIANKLFGEKTYLFLQEYLDAIKKFYQTSVESVDFANAPEESRKKINSWVESQTNEKIKNLIPEGNIGSNTTLVLVNAIYFKGQWEKKFNKEDTKEEKFWPNKNTYKSIQMMRQYTSFHFASLEDVQAKVLEIPYKGKDLSMIVLLPNEIDGLQKLEEKLTAEKLMEWTSLQNMRETRVDLHLPRFKVEESYDLKDTLRTMGMVDIFNGDADLSGMTGSRGLVLSGVLHKAFVEVTEEGAEAAAATAVVGFGSSPTSTNEEFHCNHPFLFFIRQNKTNSILFYGRFSSP", 0),
    ("Complement factor H-related protein 1 (protein) EATFCDFPKINHGILYDEEKYKPFSQVPTGEVFYYSCEYNFVSPSKSFWTRITCTEEGWSPTPKCLRLCFFPFVENGHSESSGQTHLEGDTVQIICNTGYRLQNNENNISCVERGWSTPPKCRSTDTSCVNPPTVQNAHILSRQMSKYPSGERVRYECRSPYEMFGDEEVMCLNGNWTEPPQCKDSTGKCGPPPPIDNGDITSFPLSVYAPASSVEYQCQNLYQLEGNKRITCRNGQWSEPPKCLHPCVISREIMENYNIALRWTAKQKLYLRTGESAEFVCKRGYRLSSRSHTLRTTCWDGKLEYPTCAKR", 1),
    ("Apolipoprotein C-II (protein) TQQPQQDEMPSPTFLTQVKESLSSYWESAKTAAQNLYEKTYLPAVDEKLRDLYSKSTAAMSTYTGIFTDQVLSVLKGEE", 1),
    ("Ig lambda chain V-III region LOI (protein) VTSYVLTQPPSVSVAPGQTARITCGGNNIGSKSVHWYQQKPGQAPVLVVYDDSDRPSGIPERFSGSNSGNTATLTISRVEAGDEADYYCQVWDSSSDHPT", 1),
]

For the molecule Dermcidin (protein) YDPEAASAPGSGNPCHEASAAQKENAGEDPGLARQAPKPRKQRSSLLEKGLDGAKKAVGGLGKLGKDAVEDLESVGKGAVHDVKDVLDSVL , give its reported Semi-quantitative analysis of proteins binding to different plaque particles: Chl small.
0
